- Tested on: Phosphatidylinositol 4,5-bisphosphate 3-kinase catalytic subunit alpha isoform (Homo sapiens)
- Sequence (P42336 whole entry, canonical isoform): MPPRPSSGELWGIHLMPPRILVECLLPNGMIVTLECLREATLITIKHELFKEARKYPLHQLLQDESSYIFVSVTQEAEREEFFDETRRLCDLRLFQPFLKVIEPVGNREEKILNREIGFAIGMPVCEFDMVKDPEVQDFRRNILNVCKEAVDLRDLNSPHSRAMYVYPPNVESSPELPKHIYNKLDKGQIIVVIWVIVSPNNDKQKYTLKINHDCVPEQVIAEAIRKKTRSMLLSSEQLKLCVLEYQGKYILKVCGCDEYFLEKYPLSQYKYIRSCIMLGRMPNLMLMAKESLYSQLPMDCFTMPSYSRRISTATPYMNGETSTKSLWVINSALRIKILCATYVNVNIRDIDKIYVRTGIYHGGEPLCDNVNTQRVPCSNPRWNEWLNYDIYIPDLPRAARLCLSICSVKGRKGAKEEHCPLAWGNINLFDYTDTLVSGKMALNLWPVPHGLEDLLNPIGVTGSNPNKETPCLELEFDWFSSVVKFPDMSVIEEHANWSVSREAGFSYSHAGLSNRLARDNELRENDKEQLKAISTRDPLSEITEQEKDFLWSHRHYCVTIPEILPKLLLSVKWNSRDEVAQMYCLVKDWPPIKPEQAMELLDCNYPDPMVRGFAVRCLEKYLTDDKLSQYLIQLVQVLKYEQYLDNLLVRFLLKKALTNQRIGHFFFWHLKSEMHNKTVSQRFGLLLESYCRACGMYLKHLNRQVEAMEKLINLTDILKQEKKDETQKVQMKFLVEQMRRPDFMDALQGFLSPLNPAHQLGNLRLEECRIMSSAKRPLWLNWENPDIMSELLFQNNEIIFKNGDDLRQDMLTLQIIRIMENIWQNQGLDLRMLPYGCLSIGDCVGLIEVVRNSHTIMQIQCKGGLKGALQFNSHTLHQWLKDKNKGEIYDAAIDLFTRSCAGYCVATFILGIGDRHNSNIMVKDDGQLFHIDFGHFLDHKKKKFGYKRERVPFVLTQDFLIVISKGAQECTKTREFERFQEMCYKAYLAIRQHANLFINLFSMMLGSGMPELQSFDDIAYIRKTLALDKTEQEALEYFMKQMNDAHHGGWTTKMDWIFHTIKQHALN
- Test name: Inhibition of PI3K p110alpha (unknown origin) using PIP2 as substrate by ELISA
# maps each entry to its IC50
Lab book: enter the figure in nM, no units written.

CCS(=O)(=O)Nc1cc(-c2ccc3ncnc(Nc4ccc(F)c(Cl)c4)c3c2)cnc1OC
317

The reported IC50 of the compound "CCS(=O)(=O)Nc1cc(-c2ccc3ncnc(Nc4cccc(C(=O)OC)c4)c3c2)cnc1OC" was 165

* * *

# maps each entry to its pIC50
- Tested on: Phosphatidylinositol 4,5-bisphosphate 3-kinase catalytic subunit beta isoform (Homo sapiens, UniProt P42338)
- Sequence (P42338 whole entry, canonical isoform): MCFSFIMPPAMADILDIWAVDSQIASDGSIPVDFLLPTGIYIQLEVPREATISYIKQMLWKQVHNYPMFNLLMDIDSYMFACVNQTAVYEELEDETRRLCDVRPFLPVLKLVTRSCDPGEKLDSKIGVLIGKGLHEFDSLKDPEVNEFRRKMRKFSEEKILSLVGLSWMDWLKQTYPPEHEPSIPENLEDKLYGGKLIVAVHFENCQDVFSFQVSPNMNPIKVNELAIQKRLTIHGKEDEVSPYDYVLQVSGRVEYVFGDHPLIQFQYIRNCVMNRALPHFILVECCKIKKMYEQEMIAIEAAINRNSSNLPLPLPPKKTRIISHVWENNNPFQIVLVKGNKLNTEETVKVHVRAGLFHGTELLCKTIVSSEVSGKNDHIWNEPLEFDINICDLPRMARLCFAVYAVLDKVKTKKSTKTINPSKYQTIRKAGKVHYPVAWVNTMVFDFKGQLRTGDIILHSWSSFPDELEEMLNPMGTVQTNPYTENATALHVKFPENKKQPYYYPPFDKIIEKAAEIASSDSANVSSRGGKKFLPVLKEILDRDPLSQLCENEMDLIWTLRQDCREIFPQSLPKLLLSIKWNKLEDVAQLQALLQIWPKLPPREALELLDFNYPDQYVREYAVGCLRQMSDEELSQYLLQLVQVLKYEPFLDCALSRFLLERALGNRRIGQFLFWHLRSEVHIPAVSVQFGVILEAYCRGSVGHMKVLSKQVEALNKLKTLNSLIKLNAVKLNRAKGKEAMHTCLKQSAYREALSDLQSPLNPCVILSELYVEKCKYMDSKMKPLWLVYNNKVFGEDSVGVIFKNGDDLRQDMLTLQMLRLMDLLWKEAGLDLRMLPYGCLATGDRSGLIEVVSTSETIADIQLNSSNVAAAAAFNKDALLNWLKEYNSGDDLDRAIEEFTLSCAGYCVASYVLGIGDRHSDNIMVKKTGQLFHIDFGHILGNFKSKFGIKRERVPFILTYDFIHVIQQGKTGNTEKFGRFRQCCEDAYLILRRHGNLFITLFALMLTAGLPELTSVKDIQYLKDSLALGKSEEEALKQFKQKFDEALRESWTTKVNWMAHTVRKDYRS
- Test name: Inhibition of PI3K p110beta (unknown origin) using PIP2 as substrate by ELISA
Scale explanation: pIC50 corresponds to minus log10 of a concentration expressed in moles per litre.

CCS(=O)(=O)Nc1cc(-c2ccc3ncnc(Nc4ccc(F)c(Cl)c4)c3c2)cnc1OC
5.03

// moving on: another record for pIC50
The reported pIC50 of the compound "CCS(=O)(=O)Nc1cc(-c2ccc3ncnc(Nc4cccc(C(=O)OC)c4)c3c2)cnc1OC" was 5.31

* * *

- Test system: MCF7
- Test name: Cytotoxicity against human MCF7 cells after 72 hrs by SRB assay
- Type: functional, cell-based
- Condition notes: MCF7, 72 h
Sorting guide: entries reporting IC50 beneath 10 µM go in the true (1) pile, the rest go in the false (0) pile.

CCS(=O)(=O)Nc1cc(-c2ccc3ncnc(Nc4ccc(F)cc4F)c3c2)cnc1OC
true (1)
CCS(=O)(=O)Nc1cc(-c2ccc3ncnc(Nc4ccc(OCc5ccc(F)cc5)c(Cl)c4)c3c2)cnc1OC
false (0)
CCS(=O)(=O)Nc1cc(-c2ccc3ncnc(Nc4ccc(OC)cc4)c3c2)cnc1OC
true (1)
Cn1c(=O)n(-c2ccc(C(C)(C)C#N)cc2)c2c3cc(-c4cnc5ccccc5c4)ccc3ncc21
true (1)
CCCCS(=O)(=O)Nc1cc(-c2ccc3ncnc(Nc4cccc(C(=O)OCC)c4)c3c2)cnc1OC
false (0)

Dear reviewer, please state whether "CCS(=O)(=O)Nc1cc(-c2ccc3ncnc(Nc4ccc(F)c(C(=O)OC)c4)c3c2)cnc1OC" has IC50 strictly beneath 10 µM.
true (1)

Dear reviewer, please state whether "CCS(=O)(=O)Nc1cc(-c2ccc3ncnc(Nc4ccc(C(=O)OC)c(OC)c4)c3c2)cnc1OC" has IC50 strictly beneath 10 µM.
false (0)

Dear reviewer, please state whether "COC(=O)c1cccc(Nc2ncnc3ccc(-c4cnc(OC)c(NS(=O)(=O)c5ccc(F)cc5F)c4)cc23)c1" has IC50 strictly beneath 10 µM.
false (0)

Dear reviewer, please state whether "CCS(=O)(=O)Nc1cc(-c2ccc3ncnc(Nc4ccc(OC)c(OC)c4)c3c2)cnc1OC" has IC50 strictly beneath 10 µM.
true (1)

Dear reviewer, please state whether "CCCCS(=O)(=O)Nc1cc(-c2ccc3ncnc(Nc4ccc(F)c(Cl)c4)c3c2)cnc1OC" has IC50 strictly beneath 10 µM.
false (0)

Dear reviewer, please state whether "CCS(=O)(=O)Nc1cc(-c2ccc3ncnc(Nc4ccc(F)nc4)c3c2)cnc1OC" has IC50 strictly beneath 10 µM.
true (1)

Dear reviewer, please state whether "CCS(=O)(=O)Nc1cc(-c2ccc3ncnc(Nc4ccc(OC(F)(F)F)cc4)c3c2)cnc1OC" has IC50 strictly beneath 10 µM.
false (0)

Dear reviewer, please state whether "CCS(=O)(=O)Nc1cc(-c2ccc3ncnc(Nc4ccc(OC)c(Cl)c4)c3c2)cnc1OC" has IC50 strictly beneath 10 µM.
true (1)
